target: human CCR8 (human, UniProt P51685 1-355); assay: cell-based or functional assay
Property Measured: hCCL1 (100 nM) residual response in %, Protocol #2, mAb 0.4 µg/mL (2.67 nM) (%)
Answers are plain numbers, in %.

So for anti-CCR8 mAb 2-4 (antibody, V domains shown) VH: EVQLQQSGPELVKPGASVKISCKTSGYTFTEYTIHWVKQSHGESLEWVGGINPNNGNTRYDQKFKGKATLTIDKSSSPAYMELRSLTSEDSAVYYCARVARSSGSGPYAMDYWGQGTSVTVSS VL: DVVMTQTPLSLPVSLGDQASISCRCTQSLLHTNGDTYLHWYLQKPGQSPKLLIYKVSNRFSGVPDRFSGSGSGTDFTLKISRVEAEDLGVYFCSQSTHVPYTFGGGTKLEIK , the logged hCCL1 (100 nM) residual response in %, Protocol #2, mAb 0.4 µg/mL (2.67 nM) turned out to be 46
